Assay: Pharmacokinetic study in female mice (plasma, liver, bone)
Type: in vivo, female C57/BL6 mice
Details: female, C57/BL6, mouse, liver, po, 10 mg/kg; PO (QD*3) 10 mg/kg
MEASURED_PROPERTY: Cmax (ng/g)
The reply should contain only the number, in ng/g.

IN: For the compound shown here, O=C1Nc2ccc(-c3cc(C(F)(F)F)cc(C(F)(F)F)c3)cc2C(=O)N2CCN(C(=O)COc3ccc(OC(F)(F)F)cc3I)C[C@@H]12 , give the reported Cmax.
OUT: 3570

###

Experiment: Pharmacokinetic study in female mice (plasma, liver, bone)
Format: in vivo, female C57/BL6 mice
Conditions: female, C57/BL6, mouse, liver/plasma, iv, 3 mg/kg, IV 3 mg/kg; read-out: AUClast Ratio (Liver/Plasma)
MEASURED_PROPERTY: Kp
Lab note: write the figure by itself, no unit.

IN: For the molecule shown here, O=C1Nc2ccc(-c3cc(C(F)(F)F)cc(C(F)(F)F)c3)cc2C(=O)N2CCN(C(=O)COc3ccc(OC(F)(F)F)cc3I)C[C@@H]12 , give the reported Kp.
OUT: 8.3
